- Experiment: Half life in rat microsomes
- Format: ADME, Microsome
Recorded Metric: half-life (h)
State the answer as a number, implicitly in h.

// query What value of half-life has been reported for the following compound? COc1ccc(Nc2ncc3nc(Nc4ccccc4F)n(C4CCCC4)c3n2)cc1
// result 1.68

----------
- Experiment: Metabolic stability of the compound in rat liver microsomes assessed as compound remaining at 3 uM after 30 mins
- Assay type: ADME, Microsome
- Measurement Setup: read-out: Stability
Recorded Metric: remaining at 0.5 h, 3 µM (%)
State the answer as a number, implicitly in %.

// query What value of remaining at 0.5 h, 3 µM has been reported for the following compound? N[C@H]1CC[C@H](Nc2ncc3nc(Nc4ccc(F)cc4F)n(C4CCCC4)c3n2)CC1
// result 92
